- Test system: U87MG (human glioblastoma astrocytoma)
- protocol notes: SRB Cell Cytotoxicity Assay (cell proliferation, 72h)
- Type: cell-based
- measurement setup: U-87 MG, 72 h, read-out: Concentration (µM) of test compounds at which the cell growth is inhibited by 50 %. U87MG
In this section, each of the molecules is paired with its reported EC50.

Known results for molecules:
molecule	EC50
Cn1cc(NC(=O)c2cc(NC(=O)Nc3cc(C(=O)Nc4cc(C(=O)Nc5cccc(CC(=O)NCC(=O)O)c5)n(C)c4)cc(C(F)(F)F)c3)cc(C(F)(F)F)c2)cc1C(=O)Nc1cccc(CC(=O)NCC(=O)O)c1 [Compound 13c]	> 2.5 µM
Cn1cc(NC(=O)c2ccc(Oc3ccc(C(=O)Nc4cc(C(=O)Nc5cccc(CC(=O)N[C@@H](Cc6ccccc6)C(=O)O)c5)n(C)c4)cc3)cc2)cc1C(=O)Nc1cccc(CC(=O)N[C@@H](Cc2ccccc2)C(=O)O)c1 [Compound 36e]	> 2.5 µM

Here is another molecule to look at.
The reported value for Cn1cc(NC(=O)c2cccc(NC(=O)Nc3cccc(C(=O)Nc4cc(C(=O)Nc5cccc(CC(=O)NCC(=O)O)c5)n(C)c4)c3)c2)cc1C(=O)Nc1cccc(CC(=O)NCC(=O)O)c1 [Compound 12b] in terms of EC50 is > 2.5 µM

// provenance: patent EP3381898A1
